Assay: Rat in vivo CNS penetration: plasma, brain and CSF concentrations by LC-MS/MS
Conditions: male, Sprague Dawley, plasma, po, 10 mg/kg, 10 mg/kg p.o., 8 h post-dose, unbound plasma, [Pl] x Pl Fu, read-out: [Plu]
property measured: concentration at 8 h (nM)
Unit nM implied. Number only.

// worked examples, concentration at 8 h included
COc1cnc(C(=O)Nc2cc(F)c(F)c([C@]34CO[C@H](CF)[C@H]3CSC(N)=N4)c2)cn1 : 14
COc1cnc(C(=O)Nc2ccc(F)c([C@]34CO[C@H](C(F)F)[C@H]3CSC(N)=N4)c2)cn1 : 12

Here's the next entry for you.
Ask: Which concentration at 8 h value is on record for `COc1cnc(C(=O)Nc2ccc(F)c([C@]34CO[C@H](CF)[C@H]3CSC(N)=N4)c2)cn1` ?
Result: 56

###

Catalogue of Kp at 2 h values
Experiment: Rat in vivo CNS penetration: plasma, brain and CSF concentrations by LC-MS/MS
Settings: male, Sprague Dawley, brain, po, 10 mg/kg, 10 mg/kg p.o., 2 h post-dose, read-out: Bru:Plu

// worked examples, Kp at 2 h included
COc1cnc(C(=O)Nc2ccc(F)c([C@]34CO[C@H](C(F)F)[C@H]3CSC(N)=N4)c2)cn1 : 0.7
COc1cnc(C(=O)Nc2ccc(F)c([C@]34CO[C@H](CF)[C@H]3CSC(N)=N4)c2)cn1 : 0.6

Here's the next entry for you.
Ask: Which Kp at 2 h value is on record for `COc1cnc(C(=O)Nc2cc(F)c(F)c([C@]34CO[C@H](CF)[C@H]3CSC(N)=N4)c2)cn1` ?
Result: 0.6

###

Catalogue of Kp at 6 h values
Assay: Rat in vivo CNS penetration: plasma, brain and CSF concentrations by LC-MS/MS
Details: male, Sprague Dawley, brain, po, 10 mg/kg, 10 mg/kg p.o., 6 h post-dose, read-out: Bru:Plu
Just the number, please.

// worked examples, Kp at 6 h included
COc1cnc(C(=O)Nc2cc(F)c(F)c([C@]34CO[C@H](CF)[C@H]3CSC(N)=N4)c2)cn1 : 0.6
COc1cnc(C(=O)Nc2ccc(F)c([C@]34CO[C@H](C(F)F)[C@H]3CSC(N)=N4)c2)cn1 : 0.6

Ask: Which Kp at 6 h value is on record for `COc1cnc(C(=O)Nc2ccc(F)c([C@]34CO[C@H](CF)[C@H]3CSC(N)=N4)c2)cn1` ?
Result: 0.5

###

Assay: Rat in vivo CNS penetration: plasma, brain and CSF concentrations by LC-MS/MS
Conditions: male, Sprague Dawley, plasma, po, 10 mg/kg, 10 mg/kg p.o., 2 h post-dose, unbound plasma, [Pl] x Pl Fu, read-out: [Plu]
Method: Rat In Vivo CNS Penetration Male Sprague Dawley rats were acquired from Charles River UK Ltd. (Margate, UK) and housed according to UK Home Office guidelines. Drugs were made up to the appropriate concentrations in 0.5% methyl cellulose. […] An aliquot (100 μL) of each study sample was taken into Micronics tubes ready for analysis and sufficient aliquots (90 μL) of control brain homogenate prepared for preparation of standards and blanks. […]
property measured: concentration at 2 h (nM)
Unit nM implied. Number only.

// worked examples, concentration at 2 h included
COc1cnc(C(=O)Nc2ccc(F)c([C@]34CO[C@H](CF)[C@H]3CSC(N)=N4)c2)cn1 : 214
COc1cnc(C(=O)Nc2ccc(F)c([C@]34CO[C@H](C(F)F)[C@H]3CSC(N)=N4)c2)cn1 : 55

Ask: Which concentration at 2 h value is on record for `COc1cnc(C(=O)Nc2cc(F)c(F)c([C@]34CO[C@H](CF)[C@H]3CSC(N)=N4)c2)cn1` ?
Result: 51

###

Test: Rat in vivo CNS penetration: plasma, brain and CSF concentrations by LC-MS/MS
Details: male, Sprague Dawley, brain, po, 10 mg/kg, 10 mg/kg p.o., 8 h post-dose, read-out: Bru:Plu
Catalogue of Kp at 8 h values
Just the number, please.

// worked examples, Kp at 8 h included
COc1cnc(C(=O)Nc2ccc(F)c([C@]34CO[C@H](CF)[C@H]3CSC(N)=N4)c2)cn1 : 0.6
COc1cnc(C(=O)Nc2cc(F)c(F)c([C@]34CO[C@H](CF)[C@H]3CSC(N)=N4)c2)cn1 : 0.6

Here's the next entry for you.
Ask: Which Kp at 8 h value is on record for `COc1cnc(C(=O)Nc2ccc(F)c([C@]34CO[C@H](C(F)F)[C@H]3CSC(N)=N4)c2)cn1` ?
Result: 0.7

###

Experiment: Rat in vivo CNS penetration: plasma, brain and CSF concentrations by LC-MS/MS
Conditions: male, Sprague Dawley, CSF, po, 10 mg/kg, 10 mg/kg p.o., 6 h post-dose, CSF concentration, read-out: [CSF]
property measured: concentration at 6 h (nM)
Unit nM implied. Number only.

COc1cnc(C(=O)Nc2cc(F)c(F)c([C@]34CO[C@H](CF)[C@H]3CSC(N)=N4)c2)cn1 : 13
COc1cnc(C(=O)Nc2ccc(F)c([C@]34CO[C@H](CF)[C@H]3CSC(N)=N4)c2)cn1 : 60

Here's the next entry for you.
Ask: Which concentration at 6 h value is on record for `COc1cnc(C(=O)Nc2ccc(F)c([C@]34CO[C@H](C(F)F)[C@H]3CSC(N)=N4)c2)cn1` ?
Result: 15

###

Assay: Rat in vivo CNS penetration: plasma, brain and CSF concentrations by LC-MS/MS
Settings: male, Sprague Dawley, brain, po, 10 mg/kg, 10 mg/kg p.o., 6 h post-dose, total brain concentration, read-out: [Br]
property measured: concentration at 6 h
Note to self: number, then unit, no commentary.

COc1cnc(C(=O)Nc2cc(F)c(F)c([C@]34CO[C@H](CF)[C@H]3CSC(N)=N4)c2)cn1 : 609 nM
COc1cnc(C(=O)Nc2ccc(F)c([C@]34CO[C@H](C(F)F)[C@H]3CSC(N)=N4)c2)cn1 : 561 nM

Here's the next entry for you.
Ask: Which concentration at 6 h value is on record for `COc1cnc(C(=O)Nc2ccc(F)c([C@]34CO[C@H](CF)[C@H]3CSC(N)=N4)c2)cn1` ?
Result: 703 nM

###

Test: Rat in vivo CNS penetration: plasma, brain and CSF concentrations by LC-MS/MS
Conditions: male, Sprague Dawley, brain, po, 10 mg/kg, 10 mg/kg p.o., 8 h post-dose, read-out: Brtot:Pltot
property measured: Kp at 8 h
Just the number, please.

// worked examples, Kp at 8 h included
COc1cnc(C(=O)Nc2ccc(F)c([C@]34CO[C@H](C(F)F)[C@H]3CSC(N)=N4)c2)cn1 [Example 3] : 3
COc1cnc(C(=O)Nc2cc(F)c(F)c([C@]34CO[C@H](CF)[C@H]3CSC(N)=N4)c2)cn1 [Example 4] : 3.7

Here's the next entry for you.
Ask: Which Kp at 8 h value is on record for COc1cnc(C(=O)Nc2ccc(F)c([C@]34CO[C@H](CF)[C@H]3CSC(N)=N4)c2)cn1 [Example 2] ?
Result: 2.1

###

Assay: Rat in vivo CNS penetration: plasma, brain and CSF concentrations by LC-MS/MS
Conditions: male, Sprague Dawley, brain, po, 10 mg/kg, 10 mg/kg p.o., 2 h post-dose, total brain concentration, read-out: [Br]
property measured: concentration at 2 h
Note to self: number, then unit, no commentary.

COc1cnc(C(=O)Nc2ccc(F)c([C@]34CO[C@H](CF)[C@H]3CSC(N)=N4)c2)cn1 : 1780 nM
COc1cnc(C(=O)Nc2cc(F)c(F)c([C@]34CO[C@H](CF)[C@H]3CSC(N)=N4)c2)cn1 : 1470 nM

Ask: Which concentration at 2 h value is on record for `COc1cnc(C(=O)Nc2ccc(F)c([C@]34CO[C@H](C(F)F)[C@H]3CSC(N)=N4)c2)cn1` ?
Result: 1090 nM

###

Assay: Rat in vivo CNS penetration: plasma, brain and CSF concentrations by LC-MS/MS
Conditions: male, Sprague Dawley, CSF, po, 10 mg/kg, 10 mg/kg p.o., 4 h post-dose, read-out: CSF:Plu
Method: Rat In Vivo CNS Penetration Male Sprague Dawley rats were acquired from Charles River UK Ltd. (Margate, UK) and housed according to UK Home Office guidelines. Drugs were made up to the appropriate concentrations in 0.5% methyl cellulose. […] An aliquot (100 μL) of each study sample was taken into Micronics tubes ready for analysis and sufficient aliquots (90 μL) of control brain homogenate prepared for preparation of standards and blanks. […]
property measured: Kp at 4 h
Just the number, please.

COc1cnc(C(=O)Nc2cc(F)c(F)c([C@]34CO[C@H](CF)[C@H]3CSC(N)=N4)c2)cn1 : 0.6
COc1cnc(C(=O)Nc2ccc(F)c([C@]34CO[C@H](CF)[C@H]3CSC(N)=N4)c2)cn1 : 1.2

Here's the next entry for you.
Ask: Which Kp at 4 h value is on record for `COc1cnc(C(=O)Nc2ccc(F)c([C@]34CO[C@H](C(F)F)[C@H]3CSC(N)=N4)c2)cn1` ?
Result: 0.5

Each recorded value in this set is attributed to patent US9175013B2.
